Reference source for all entries: ChEMBL document CHEMBL1154981

Tested on: Human immunodeficiency virus 1
method.summary: Antiviral activity against HIV1-infected human C8166 cells
Type: functional, organism-based
test.conditions: Human immunodeficiency virus 1, C8166
property: EC50 (µg/mL)

Some solved entries appear below for comparison.
1. C[C@@H]1C(=O)O[C@H]2[C@@H]1O[C@]13O[C@@]4(CC[C@]5(C)C(=O)[C@@H](C)[C@H]2[C@H]15)C[C@]12OC(=O)C[C@H]1OC(C)(C)[C@@H]2C[C@@H]1O[C@@]14C3=O ... 80.8
2. C[C@@H]1C(=O)[C@@]2(C)CC[C@]34C[C@]56OC(=O)C[C@H]5O[C@@](C)(CO)[C@@H]6CC[C@@]3(O)C(=O)[C@@]3(O[C@]5(C[C@H](C)C(=O)O5)[C@@H]1[C@H]32)O4 ... 14.3
3. CC1=C[C@H]([C@H]2O[C@]34C(=CC[C@@H]3[C@@H]2C)[C@@H]2[C@H](O)C[C@H]3C(C)(C)O[C@@H]5CC(=O)O[C@@]53C[C@@]2(O)C[C@@H]4O)OC1=O ... 50.1

P = CC1(C)O[C@@H]2CC(=O)O[C@@]23C[C@]24CC[C@]5(C)C(=O)[C@](C)(O)[C@]6(O)[C@H]7OC(=O)[C@](C)(O)[C@H]7O[C@@](O2)(C(=O)C4=CC[C@@H]13)[C@@H]65
Q = C/C(=C/[C@H]1O[C@]23O[C@@]4(CC[C@]5(C)C(=O)[C@](C)(O)[C@H]1[C@H]25)C[C@]12OC(=O)C[C@H]1OC(C)(C)[C@@H]2CC=C4C3=O)C(=O)O
R = C[C@@H]1C(=O)O[C@H]2[C@@H]1O[C@]13O[C@@]4(CC[C@]5(C)C(=O)[C@](C)(O)[C@@]2(O)[C@H]15)C[C@]12OC(=O)C[C@H]1OC(C)(C)[C@@H]2[C@@H](O)C[C@H]4C3=O
Your job: order these 3 records by EC50, ascending. Labels, requested order.
Q, R, P
(Q: 15.2 µg/mL, R: 30.1 µg/mL, P: 66.8 µg/mL)
